Target: T1, human NGF (human, UniProt P01138 122-241)
T1 construct: also called human Nerve Growth Factor; hN
T1 chain: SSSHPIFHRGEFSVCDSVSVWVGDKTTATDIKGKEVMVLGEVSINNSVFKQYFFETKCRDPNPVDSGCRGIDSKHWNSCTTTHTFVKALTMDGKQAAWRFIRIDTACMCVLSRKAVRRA
Assay: SPR (Biacore T200), 100 nM mAb on NGF chip, similarity to parent mAb
Text: The region of an antibody responsible for antigen recognition represents the paratope. A paratope is created by a combination of amino acids in the complementarity determining regions (CDRs) of both the heavy and light chain variable regions. The binding between antibody and antigen is often mediated by side chains of CDR residues with side chains or carbohydrate moieties of the antigen. […]
# maps each entry to its Percent Similarity Score (KD on hN)

| Binder | Percent Similarity Score (KD on hN) |
| --- | --- |
| can9L12VH_E105A (antibody, V domains shown) VH: EVQLVESGGDLVKPGGSLRLSCVASGFTFSSHGMHWVRQSPGKGLQWVAVINSGGSSTYYTDAVKGRFTISRDNAKNTVYLQMNSLRAEDTAMYYCAKESVGGWAQLVGPHFDYWGQGTLVIVSS VL: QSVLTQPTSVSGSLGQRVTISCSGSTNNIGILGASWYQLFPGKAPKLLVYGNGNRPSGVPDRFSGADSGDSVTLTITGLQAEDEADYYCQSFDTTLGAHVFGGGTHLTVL | 98.4% |
| can48L2VH_T31A (antibody, V domains shown, CDR scanning mutant of ZTS-842 (48L2)) VH: EVQLVESGGDLVKPGGSLRLSCVASGFTFSAYGINWVRQAPGKGLQWVAYISSGGSSTYYADPVKGRFTISRDDAKNMLYLQMNSLRAEDTAIYYCAGSRYTYAYGGGYEFHFWGQGTLVTVSS VL: QAVLNQPASVSGALGQKVTISCSGSTMDIDIFGVSWYQQLPGKAPKLLVDSDGDRPSGIPDRFSGSRSGNSGTLTITGLQAEDEADYHCQSGDSTLGALAIFGGGTHVTVL | 99.9% |
| can48L2VL_S51A (antibody, V domains shown, CDR scanning mutant of ZTS-842 (48L2)) VH: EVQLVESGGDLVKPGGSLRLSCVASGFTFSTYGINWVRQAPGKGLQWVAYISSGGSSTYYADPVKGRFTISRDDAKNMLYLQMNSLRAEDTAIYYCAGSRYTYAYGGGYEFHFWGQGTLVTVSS VL: QAVLNQPASVSGALGQKVTISCSGSTMDIDIFGVSWYQQLPGKAPKLLVDADGDRPSGIPDRFSGSRSGNSGTLTITGLQAEDEADYHCQSGDSTLGALAIFGGGTHVTVL | 100% |
| can9L12VH_P110A (antibody, V domains shown) VH: EVQLVESGGDLVKPGGSLRLSCVASGFTFSSHGMHWVRQSPGKGLQWVAVINSGGSSTYYTDAVKGRFTISRDNAKNTVYLQMNSLRAEDTAMYYCAKESVGGWEQLVGAHFDYWGQGTLVIVSS VL: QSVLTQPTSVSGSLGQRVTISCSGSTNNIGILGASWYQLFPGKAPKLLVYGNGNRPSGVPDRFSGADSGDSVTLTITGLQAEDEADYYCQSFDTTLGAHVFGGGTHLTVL | 2.1% |
| can48L2VL_T26A (antibody, V domains shown, CDR scanning mutant of ZTS-842 (48L2)) VH: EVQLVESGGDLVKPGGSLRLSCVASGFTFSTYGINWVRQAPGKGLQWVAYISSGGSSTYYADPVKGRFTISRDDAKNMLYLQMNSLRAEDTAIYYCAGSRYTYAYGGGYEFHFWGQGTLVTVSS VL: QAVLNQPASVSGALGQKVTISCSGSAMDIDIFGVSWYQQLPGKAPKLLVDSDGDRPSGIPDRFSGSRSGNSGTLTITGLQAEDEADYHCQSGDSTLGALAIFGGGTHVTVL | 99.8% |
